Assign αs1 CN, 24 hours, 11° C. to each entry below.
Molecular target: T1, alpha-s1 casein from Bos taurus
T1 chain: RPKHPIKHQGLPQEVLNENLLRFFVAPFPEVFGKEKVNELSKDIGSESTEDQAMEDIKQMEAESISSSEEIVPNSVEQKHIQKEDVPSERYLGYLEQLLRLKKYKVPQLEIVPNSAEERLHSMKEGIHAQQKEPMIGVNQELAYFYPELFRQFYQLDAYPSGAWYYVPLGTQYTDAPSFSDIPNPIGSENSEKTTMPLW
The figure you give is taken to be in Volume; do not add the unit.

### Prompt Entry under review: camel chymosin variant #164 (L295Y) (protein) GKVAREPLTSYLDSQYFGKIYIGTPPQEFTVVFDTGSSDLWVPSIYCKSNVCKNHHRFDPRKSSTFRNLGKPLSIHYGTGSMEGFLGYDTVTVSNIVDPNQTVGLSTEQPGEVFTYSEFDGILGLAYPSLASEYSVPVFDNMMDRHLVARDLFSVYMDRNGQGSMLTLGAIDPSYYTGSLHWVPVTLQQYWQFTVDSVTINGVAVACVGGCQAILDTGTSVLFGPSSDILKIQMAIGATENRYGEFDVNCGNLRSMPTVVFEINGRDYPLSPSAYTSKDQGFCTSGFQGDNNSEYWILGDVFIREYYSVFDRANNRVGLAKAI . Reported αs1 CN, 24 hours, 11° C.?
### Response 1.49e+07

### Prompt Now consider Maxiren (recombinant wild-type calf chymosin B) (protein) GEVASVPLTNYLDSQYFGKIYLGTPPQEFTVLFDTGSSDFWVPSIYCKSNACKNHQRFDPRKSSTFQNLGKPLSIHYGTGSMQGILGYDTVTVSNIVDIQQTVGLSTQEPGDVFTYAEFDGILGMAYPSLASEYSIPVFDNMMNRHLVAQDLFSVYMDRNGQESMLTLGAIDPSYYTGSLHWVPVTVQQYWQFTVDSVTISGVVVACEGGCQAILDTGTSKLVGPSSDILNIQQAIGATQNQYGEFDIDCDNLSYMPTVVFEINGKMYPLTPSAYTSQDQGFCTSGFQSENHSQKWILGDVFIREYYSVFDRANNLVGLAKAI and answer again.
### Response 1.6e+06

meta.source: patent US20150140169
